Cited source for all entries: paper PMC5607274

molecular target: human recombinant Yes [a.a. 2–543 (end)] (Homo sapiens); construct: human recombinant Yes [a.a; 2–543 (end)]; purchased BPS Bioscience 40488; experiment: ADP-Glo kinase assay, inhibition rates of Yes phosphorylation activity (first and second screening); type: biochemical; conditions: first screening; mean of n = 4 wells; 10 μmol L−1 compound
Property: First screening IR (inhibition rate); scope: individual compounds
quantity: First screening IR (inhibition rate) (%)

[[record]]
compound = "O=C(CSc1nc2ccccc2s1)Nc1cccc2c1C(=O)c1ccccc1C2=O"
quantity = "First screening IR (inhibition rate)"
observed_value = 6

[[record]]
compound = "Cc1cc(Br)c(O)c(C(=O)NCCC(=O)N2CCOCC2)c1"
quantity = "First screening IR (inhibition rate)"
observed_value = 7

[[record]]
compound = "Cc1cnc(CCSc2ncc(-c3ccc(F)cc3)o2)cn1"
quantity = "First screening IR (inhibition rate)"
observed_value = 15

[[record]]
compound = "Cn1ncc2c(NCCOc3ccc4c(c3)OCO4)ncnc21"
quantity = "First screening IR (inhibition rate)"
observed_value = -38

[[record]]
compound = "Cc1ccc(NC(=O)c2ccc(N3CC(O)=C(c4nc5ccccc5s4)C3=N)cc2)c(O)c1"
quantity = "First screening IR (inhibition rate)"
observed_value = 1

[[record]]
compound = "Cc1oc(-c2ccsc2)nc1CC(=O)Nc1cc(C(N)=O)n(C)c1"
quantity = "First screening IR (inhibition rate)"
observed_value = 2

[[record]]
compound = "CC(Sc1nnc(NCc2ccc(F)cc2)s1)C(=O)N1CCCCCC1 (stereo not shown)"
quantity = "First screening IR (inhibition rate)"
observed_value = 33

[[record]]
compound = "CCN(CC)C(=O)c1ccc(NS(=O)(=O)c2cc3c(cc2Cl)NC(=O)C3)cc1"
quantity = "First screening IR (inhibition rate)"
observed_value = -4

[[record]]
compound = "CN(C)c1nccc(N2CCN(Cc3ccc(Cl)o3)CC2)n1"
quantity = "First screening IR (inhibition rate)"
observed_value = 27

[[record]]
compound = "CN(c1cc(C#N)ccn1)S(=O)(=O)c1ccccc1S(C)(=O)=O"
quantity = "First screening IR (inhibition rate)"
observed_value = 7

[[record]]
compound = "N#Cc1cccc(C(=O)NCc2nc(-c3ccc(F)cc3)n[nH]2)c1"
quantity = "First screening IR (inhibition rate)"
observed_value = 55

[[record]]
compound = "CCc1nn2c(Nc3ccc(C(N)=O)cc3)cc(C)nc2c1-c1ccc(F)cc1"
quantity = "First screening IR (inhibition rate)"
observed_value = 6

[[record]]
compound = "O=[N+]([O-])c1ccc(Nc2cccc(N3CCCC3)c2)c([N+](=O)[O-])c1"
quantity = "First screening IR (inhibition rate)"
observed_value = 20

[[record]]
compound = "CC(C)CCn1c(CN2CCN(Cc3ccco3)CC2)nc2c1c(=O)[nH]c(=O)n2Cc1ccccc1"
quantity = "First screening IR (inhibition rate)"
observed_value = -3

[[record]]
compound = "Cc1cc(C(=O)Nc2ccc(F)c(F)c2)c2cnn(C(C)C)c2n1"
quantity = "First screening IR (inhibition rate)"
observed_value = 39

[[record]]
compound = "COc1cccc(-c2cc(-c3ccc(Cl)cc3)c3ccccc3n2)c1"
quantity = "First screening IR (inhibition rate)"
observed_value = 48

[[record]]
compound = "Cc1cc(NC(=O)Cn2nc(C)c(S(=O)(=O)N3CCCCC3)c2C)no1"
quantity = "First screening IR (inhibition rate)"
observed_value = -4

[[record]]
compound = "O=C(OCc1ccc(-n2ccnc2)nc1)c1ccc([N+](=O)[O-])cc1"
quantity = "First screening IR (inhibition rate)"
observed_value = 7

[[record]]
compound = "CC(C)(C)C1CCC(C(=O)Nc2nc(-c3ccccn3)cs2)CC1 (stereo not shown)"
quantity = "First screening IR (inhibition rate)"
observed_value = 7

[[record]]
compound = "COCCOC(=O)c1cc(-c2ccc(C)cc2)nc2c1cnn2C(C)C"
quantity = "First screening IR (inhibition rate)"
observed_value = 6

[[record]]
compound = "O=C(CSc1nnc(-c2ccco2)o1)Nc1ccc2c(c1)CCC2"
quantity = "First screening IR (inhibition rate)"
observed_value = 15

[[record]]
compound = "NS(=O)(=O)c1ccc(Cl)c(S(N)(=O)=O)c1"
quantity = "First screening IR (inhibition rate)"
observed_value = 0

[[record]]
compound = "Cn1c(=O)[nH]c(=O)c2c1nc(CN1CCN(c3cccc(Cl)c3)CC1)n2CCCc1ccccc1"
quantity = "First screening IR (inhibition rate)"
observed_value = -1

[[record]]
compound = "C=CCn1c(-c2ccc(Cl)cc2)nn(CN2CCN(C(=O)c3ccccc3F)CC2)c1=S"
quantity = "First screening IR (inhibition rate)"
observed_value = 5

[[record]]
compound = "Cc1cc(/C=C/C(=O)N2CCN(C3CCS(=O)(=O)C3)CC2)c(C)n1-c1ccc2c(c1)OCO2 (stereo not shown)"
quantity = "First screening IR (inhibition rate)"
observed_value = -12

[[record]]
compound = "O=C(Cc1csc(-c2ccsc2)n1)Nc1ccc2nc(N3CCOCC3)sc2c1"
quantity = "First screening IR (inhibition rate)"
observed_value = 8

[[record]]
compound = "CN(C)S(=O)(=O)c1ccc(S(C)(=O)=O)cc1"
quantity = "First screening IR (inhibition rate)"
observed_value = -8

[[record]]
compound = "O=C(NCCc1c[nH]c2cc(F)ccc12)c1cnc(-c2ccccc2)nc1"
quantity = "First screening IR (inhibition rate)"
observed_value = 43


###

Target: human recombinant Yes [a.a. 2–543 (end)] (Homo sapiens)
Construct: human recombinant Yes [a.a; 2–543 (end)]; purchased BPS Bioscience 40488
Experiment: ADP-Glo kinase assay, inhibition rates of Yes phosphorylation activity (first and second screening)
Format: biochemical
Conditions: first screening; mean of n = 4 wells; 10 μmol L−1 compound
Protocol: All inhibitory assays of the phosphorylation activity of Yes were performed in accordance with the Promega Technical Manual for the ADP-Glo™ Kinase Assay (Fitchburg, WI, USA. Catalog number: V9102). The human recombinant Yes [a.a. […] The screening was conducted in three steps consisting of the first screening, the second screening, and the IC50 determination, as can be illustrated in Fig. 1b. First, we determined the inhibition rates of the 1,991 compounds. […]
First screening IR (inhibition rate) listing for selected compounds.
quantity: First screening IR (inhibition rate) (%)

[[record]]
compound = "Cn1cc(Nc2nccc(C(F)(F)F)n2)cn1"
units_of_measure = "%"
observed_value = 5

[[record]]
compound = "CCCCS(=O)(=O)C1CCS(=O)(=O)C1 (stereo not drawn)"
units_of_measure = "%"
observed_value = -9

[[record]]
compound = "CCCN(C1CCS(=O)(=O)C1)S(=O)(=O)c1ccccc1Cl (stereo not drawn)"
units_of_measure = "%"
observed_value = -1


###

target: human recombinant Yes [a.a. 2–543 (end)] (Homo sapiens, UniProt P07947); construct: human recombinant Yes [a.a; 2–543 (end)]; purchased BPS Bioscience 40488; test: ADP-Glo kinase assay, inhibition rates of Yes phosphorylation activity (first and second screening); assay type: biochemical; details: first screening; mean of n = 4 wells; 10 μmol L−1 compound
Sequence (P07947 2-543): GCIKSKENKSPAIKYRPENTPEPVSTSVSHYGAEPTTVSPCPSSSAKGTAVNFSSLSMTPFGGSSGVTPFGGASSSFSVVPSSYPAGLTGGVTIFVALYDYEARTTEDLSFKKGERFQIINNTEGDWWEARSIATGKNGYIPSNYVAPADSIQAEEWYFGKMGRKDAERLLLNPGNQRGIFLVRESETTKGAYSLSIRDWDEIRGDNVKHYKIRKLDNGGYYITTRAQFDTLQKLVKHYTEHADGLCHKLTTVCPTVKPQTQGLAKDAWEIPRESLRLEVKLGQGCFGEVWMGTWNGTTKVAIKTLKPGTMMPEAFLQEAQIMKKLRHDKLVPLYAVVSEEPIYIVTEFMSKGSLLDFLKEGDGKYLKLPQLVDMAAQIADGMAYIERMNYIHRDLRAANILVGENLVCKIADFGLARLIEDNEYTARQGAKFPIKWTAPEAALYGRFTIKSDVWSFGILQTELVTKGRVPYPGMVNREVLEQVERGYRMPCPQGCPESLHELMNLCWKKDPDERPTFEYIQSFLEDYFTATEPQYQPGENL
quantity: First screening IR (inhibition rate) (%)

[[record]]
compound = "O=C(Nc1nc2c(s1)CN(Cc1ccccc1)CC2)c1cc2c(nc3sccn32)s1"
quantity = "First screening IR (inhibition rate)"
observed_value = -4

[[record]]
compound = "C/C=C/C=C/C(=O)NCc1cccc(C(=O)NCc2ccco2)c1"
quantity = "First screening IR (inhibition rate)"
observed_value = 0

[[record]]
compound = "Nc1ncnc(Nc2ccc(F)cc2)n1"
quantity = "First screening IR (inhibition rate)"
observed_value = -4

[[record]]
compound = "CC(C)c1ccc(-n2cc(O)c(C(=O)NCC(C)N3CCCCC3=O)n2)cc1 (stereo not drawn)"
quantity = "First screening IR (inhibition rate)"
observed_value = -3

[[record]]
compound = "CC1CN(C(=O)Nc2ccccn2)CCN1C(=O)Nc1ccccn1 (stereo not drawn)"
quantity = "First screening IR (inhibition rate)"
observed_value = -21

[[record]]
compound = "CC(C)c1nc2n(n1)CC(NC(=O)Nc1cc(-c3ccccc3)ns1)CC2 (stereo not drawn)"
quantity = "First screening IR (inhibition rate)"
observed_value = 17

[[record]]
compound = "Cc1nc2c(cc1C(=O)NCCNc1ccccc1[N+](=O)[O-])c(C)nn2C"
quantity = "First screening IR (inhibition rate)"
observed_value = -9

[[record]]
compound = "Cc1nccn1Cc1ccc(NC(=O)c2ncccc2O)cc1"
quantity = "First screening IR (inhibition rate)"
observed_value = 55

[[record]]
compound = "CC1CN(CC2CCN(CC(=O)Nc3cc(Cl)ccc3Cl)CC2)CC(C)O1 (stereo not drawn)"
quantity = "First screening IR (inhibition rate)"
observed_value = 2


###

biological target: human recombinant Yes [a.a. 2–543 (end)] (Homo sapiens, UniProt P07947); construct: human recombinant Yes [a.a; 2–543 (end)]; purchased BPS Bioscience 40488; experiment: ADP-Glo kinase assay, inhibition rates of Yes phosphorylation activity (first and second screening); type: biochemical; details: first screening; mean of n = 4 wells; 10 μmol L−1 compound
quantity: First screening IR (inhibition rate) (%)

[[record]]
smiles_representation = "O=C(O)c1cnc(/C=C/c2cccnc2)s1"
tested_target = "human recombinant Yes [a.a. 2–543 (end)] (Homo sapiens, UniProt P07947)"
observed_value = 0

[[record]]
smiles_representation = "Cc1sc2ncnc(Nc3ccc4c(c3)OCO4)c2c1C"
tested_target = "human recombinant Yes [a.a. 2–543 (end)] (Homo sapiens, UniProt P07947)"
observed_value = 14

[[record]]
smiles_representation = "Cc1cc(C(=O)CCC(=O)Nc2nc3c(s2)CN(C)CC3)c(C)s1"
tested_target = "human recombinant Yes [a.a. 2–543 (end)] (Homo sapiens, UniProt P07947)"
observed_value = 5

[[record]]
smiles_representation = "Cc1ncc2c(n1)CCN(C(=O)NCc1cc(-c3ccccc3)no1)C2"
tested_target = "human recombinant Yes [a.a. 2–543 (end)] (Homo sapiens, UniProt P07947)"
observed_value = 1

[[record]]
smiles_representation = "COc1ccc(-c2cc(CSCc3nc(N)nc(Nc4ccccc4)n3)on2)cc1"
tested_target = "human recombinant Yes [a.a. 2–543 (end)] (Homo sapiens, UniProt P07947)"
observed_value = -7

[[record]]
smiles_representation = "C(=C1\\CCCc2c1nc1ncnn1c2-c1ccccc1)/c1ccccc1"
tested_target = "human recombinant Yes [a.a. 2–543 (end)] (Homo sapiens, UniProt P07947)"
observed_value = 0

